These data points were gathered from PubChem BioAssay AID434987.

Overview of recorded pIC50 for various compounds
# Tested on: M. tuberculosis H37Rv growth inhibition with meropenem
# test: dose response, H37Rv, with and without meropenem (AID 434987);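 also: growth over 7 days at 37 °C before Alamar Blue read on day 9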
# measurement_setup: M. tuberculosis H37Rv growth inhibition; measured here: IC50 without meropenem
pIC50: −log10 of the molar value.
measured_parameter: pIC50

compound: Cn1c(O)c(C2=c3ccccc3=NC2=O)[nH]c1=S
assay_result: < 4.00

compound: Cc1cc(C(=O)Nc2nnc(-c3ccccc3)s2)no1
assay_result: 4.31

compound: COc1ccc(-c2cc(=Nc3ccc(C)cc3)c3ccccc3o2)cc1
assay_result: < 4.00

compound: Cc1nc(S/C(=C\c2ccc(OCc3ccccc3Cl)cc2)C(=O)O)n[nH]1
assay_result: < 4.00

compound: CC1CCc2c(sc(NC(=O)CCCn3cnc([N+](=O)[O-])n3)c2C(N)=O)C1 (stereo not drawn)
assay_result: 4.49

compound: Cc1ccc(NC(=O)C2(c3ccccc3)CC2(Cl)Cl)cc1C (stereo not drawn)
assay_result: < 4.00

compound: CC1=Nc2ccccc2/C1=C\c1nc(-c2ccc(F)cc2)oc1O
assay_result: 4.03

compound: CC1CCCC(NC(=O)COC(=O)c2cccc(NS(=O)(=O)/C=C/c3ccccc3)c2)C1C (stereo not drawn)
assay_result: < 4.00

---

# Tested on: M. tuberculosis H37Rv growth inhibition with meropenem
# test: dose response, H37Rv, with and without meropenem (AID 434987);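 also: growth over 7 days at 37 °C before Alamar Blue read on day 9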
# measurement_setup: measured here: IC90 with meropenem

structure_as_smiles: C/C(=N/NC(=O)c1cccs1)c1c(C)[nH]n(-c2nc3ccccc3s2)c1=O
IC90: 1.58 µM
--
structure_as_smiles: CC(C)CCSc1nc(N2CCOCC2)c2c(c1C#N)CC(C)(C)OC2
IC90: > 100 µM
--
structure_as_smiles: Nc1ccc(N=Nc2ccccc2O)c(N)c1
IC90: 34 µM
--
structure_as_smiles: CC(=O)n1cc([C@@H]2C=C(C(=O)N3CCN(Cc4ccc5c(c4)OCO5)CC3)O[C@H](OCCCCO)C2)c2ccccc21
IC90: > 100 µM
--
structure_as_smiles: COc1ccc(CCNCc2csc3nc4ccccc4n23)cc1OC
IC90: > 100 µM
--
structure_as_smiles: CC(=O)Nc1ccc(Nc2ncc([N+](=O)[O-])c(Nc3ccc(NC(C)=O)cc3)n2)cc1
IC90: 45.5 µM
--
structure_as_smiles: COc1cc2c(=O)n(Cc3ccco3)c(=O)n(CC(=O)c3cccc(Br)c3)c2cc1OC
IC90: > 100 µM
--
structure_as_smiles: O=C(COC(=O)Cc1ccc(S(=O)(=O)N2CCCCC2)s1)Nc1ccc2c(c1)OCO2
IC90: > 100 µM
--
structure_as_smiles: CCOC(=O)c1c(C)[nH]c(N=Nc2ccccc2Cl)c1C
IC90: > 100 µM
--
structure_as_smiles: O=C(Nc1nnc(-c2ccco2)o1)c1ccc(S(=O)(=O)N2CCOCC2)cc1
IC90: > 100 µM
--
structure_as_smiles: Cc1cc(=O)[nH]c(N/N=C/c2c(O)n(-c3ccccc3)c(=O)c3ccccc23)n1
IC90: 13.6 µM
--
structure_as_smiles: O=S(=O)(Nc1ccccc1)c1ccc2c(c1)CCO2
IC90: > 100 µM

---

# Test system: M. tuberculosis H37Rv growth inhibition with meropenem
# test: dose response, H37Rv, with and without meropenem (AID 434987);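 also: growth over 7 days at 37 °C before Alamar Blue read on day 9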
# measurement_setup: measured here: IC90 with meropenem

compound: CCn1nnnc1SCC(=O)c1ccc(C)cc1C
IC90: > 100 µM
//
compound: Cc1cc(=O)[nH]c(N/N=C/c2c(F)c(F)c(F)c(F)c2F)n1
IC90: 82.3 µM
//
compound: CCCCC(=O)Nc1ccc(NC(=S)NC(=O)CCCCl)cc1OC
IC90: > 50 µM
//
compound: COc1nc(-c2ccccc2)ccc1-c1noc(-c2cccnc2)n1
IC90: > 100 µM
//
compound: COC(=O)CN1C(CN2CCOCC2)=Nc2ccc(Br)cc2C1c1ccccc1 (configuration not stated)
IC90: > 100 µM
//
compound: OC(COC(c1ccccc1)c1ccccc1)CN1CCN(c2cccc(Cl)c2)CC1 (configuration not stated)
IC90: > 100 µM
//
compound: N#CCOC(=O)/C=C/c1ccc2c(c1)OCO2
IC90: > 50 µM
//
compound: Cc1cc(Br)ccc1NC(=O)c1ccccc1-c1ccccc1
IC90: > 100 µM
//
compound: Cc1ccccc1NC(=O)c1ccc(CN(c2ccccc2)S(=O)(=O)c2ccccc2)cc1
IC90: > 100 µM
//
compound: CCc1cc2c(=O)nc3n(c2s1)Cc1ccccc1/C3=C(/O)c1ccc(F)cc1
IC90: > 100 µM
//
compound: COc1ccccc1CNC(=O)COC(=O)C1=COCCO1
IC90: > 100 µM
//
compound: Cc1ccc2c(Cl)cc(Cl)c(OCc3c(C)noc3C)c2n1
IC90: > 100 µM
//
compound: Cc1cccc(C)c1NC(=O)C1CC2CCC1C2 (configuration not stated)
IC90: > 100 µM
//
compound: COc1ccc(C(=O)n2c(SC)nc3cc4c(cc32)OCCO4)cc1
IC90: > 100 µM
//
compound: Cn1c(=S)[nH]c2sc3c(c2c1=O)CCC(C(C)(C)C)C3 (configuration not stated)
IC90: > 100 µM
//
compound: Cc1ncc(CCl)c2c1OC(C)(C)OC2
IC90: > 100 µM
//
compound: O=C(CSc1nc2ncc(Cl)cc2[nH]1)Nc1cccc(F)c1
IC90: > 100 µM
